Biological target: UniProt:P29452
Assay: Inhibition of mouse recombinant ICE assessed as ratio of irreversible rate constant K3 to dissociation constant of the reversible binding step Ki pre-incubated for 60 mins with Acetyl-Tyr-Val-Ala-Asp-amino-4-methylcoumarin substrate followed by enzyme addition by fluorescence based assay
Listed here: items and their measured Ratio.
# value in M⁻¹ s⁻¹; strip the unit string

Solved cases (3 shown):
• CC(C)[C@H](NC(=O)C(=O)Nc1c(F)cccc1F)C(=O)N[C@@H](CC(=O)O)C(=O)COc1c(F)c(F)cc(F)c1F = 2.68e+06
• CC(C)[C@H](NC(=O)C(=O)Nc1ccncc1)C(=O)N[C@@H](CC(=O)O)C(=O)COc1c(F)c(F)cc(F)c1F = 912
• C[C@H](NC(=O)C(=O)Nc1cc(C(C)(C)C)ccc1C(C)(C)C)C(=O)N[C@@H](CC(=O)O)C(=O)COP(=O)(c1ccccc1)c1ccccc1 = 211000

# context switch: different compound, same Ratio
[ask] Tell me the measured Ratio of "C[C@H](NC(=O)C(=O)NCc1cccc2ccccc12)C(=O)N[C@@H](CC(=O)O)C(=O)COC(=O)c1c(Cl)cccc1Cl" , please.
[reply] 1.16e+06

---

Target: Caspase-1 (Mus musculus)
Sequence (whole entry): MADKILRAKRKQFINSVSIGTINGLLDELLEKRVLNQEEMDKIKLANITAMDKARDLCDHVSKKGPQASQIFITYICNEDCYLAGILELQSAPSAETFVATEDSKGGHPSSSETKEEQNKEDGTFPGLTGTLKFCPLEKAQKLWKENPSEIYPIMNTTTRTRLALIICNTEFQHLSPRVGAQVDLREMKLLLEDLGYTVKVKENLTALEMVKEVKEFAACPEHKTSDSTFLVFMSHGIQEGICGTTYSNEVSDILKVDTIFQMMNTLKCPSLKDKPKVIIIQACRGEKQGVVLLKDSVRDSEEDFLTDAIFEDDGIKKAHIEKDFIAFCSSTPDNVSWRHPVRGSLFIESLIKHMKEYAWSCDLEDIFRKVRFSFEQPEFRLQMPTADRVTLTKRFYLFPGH
Assay: Inhibition of mouse recombinant ICE assessed as ratio of irreversible rate constant K3 to dissociation constant of the reversible binding step Ki pre-incubated for 60 mins with Acetyl-Tyr-Val-Ala-Asp-amino-4-methylcoumarin substrate followed by enzyme addition by fluorescence based assay
Listed here: items and their measured Ratio.
# value in M⁻¹ s⁻¹; strip the unit string

Solved cases (6 shown):
- CC(C)[C@H](NC(=O)C(=O)NC12CC3CC(CC(C3)C1)C2)C(=O)N[C@@H](CC(=O)O)C(=O)COc1c(F)c(F)cc(F)c1F: 184000
- COc1ccccc1NC(=O)C(=O)N[C@H](C(=O)N[C@@H](CC(=O)O)C(=O)COc1c(F)c(F)cc(F)c1F)C(C)C: 2.07e+06
- CC(C)[C@H](NC(=O)C(=O)Nc1cccc2ccccc12)C(=O)N[C@@H](CC(=O)O)C(=O)COc1cccc2ccccc12: 254000
- C[C@H](NC(=O)C(=O)Nc1ccccc1I)C(=O)N[C@@H](CC(=O)O)C(=O)COP(=O)(c1ccccc1)c1ccccc1: 36300
- CC(C)[C@H](NC(=O)C(=O)Nc1ccccc1F)C(=O)N[C@@H](CC(=O)O)C(=O)COc1c(F)c(F)cc(F)c1F: 58500
- C[C@H](NC(=O)C(=O)NC1CCCCC1)C(=O)N[C@@H](CC(=O)O)C(=O)COC(=O)c1c(Cl)cccc1Cl: 2.02e+06

# context switch: different compound, same Ratio
[ask] Tell me the measured Ratio of "C[C@H](NC(=O)C(=O)Nc1ccccc1-c1ccccc1)C(=O)N[C@@H](CC(=O)O)C(=O)COP(=O)(c1ccccc1)c1ccccc1" , please.
[reply] 345000

---

Biological target: UniProt:P29452
Sequence (whole entry): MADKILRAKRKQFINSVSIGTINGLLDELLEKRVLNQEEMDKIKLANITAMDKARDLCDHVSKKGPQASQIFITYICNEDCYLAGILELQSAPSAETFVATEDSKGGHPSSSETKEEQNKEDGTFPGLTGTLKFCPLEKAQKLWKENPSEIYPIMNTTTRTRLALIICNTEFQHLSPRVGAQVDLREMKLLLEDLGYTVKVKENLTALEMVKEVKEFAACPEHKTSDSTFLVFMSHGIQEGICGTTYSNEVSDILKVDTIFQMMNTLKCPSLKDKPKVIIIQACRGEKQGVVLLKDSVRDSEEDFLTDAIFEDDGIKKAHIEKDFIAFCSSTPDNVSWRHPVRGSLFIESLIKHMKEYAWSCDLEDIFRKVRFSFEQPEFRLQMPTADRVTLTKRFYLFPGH
Experiment: Inhibition of mouse recombinant ICE assessed as ratio of irreversible rate constant K3 to dissociation constant of the reversible binding step Ki pre-incubated for 60 mins with Acetyl-Tyr-Val-Ala-Asp-amino-4-methylcoumarin substrate followed by enzyme addition by fluorescence based assay
Listed here: items and their measured Ratio.
# value in M⁻¹ s⁻¹; strip the unit string

- C[C@H](NC(=O)C(=O)Nc1ccccc1-c1ccccc1)C(=O)N[C@@H](CC(=O)O)C(=O)COC(=O)c1c(Cl)cccc1Cl: 259000

# context switch: different compound, same Ratio
[ask] Tell me the measured Ratio of "C[C@H](NC(=O)C(=O)Nc1ccccc1-c1ccccc1)C(=O)N[C@@H](CC(=O)O)C(=O)COc1ccccc1F" , please.
[reply] 167000

---

Listed here: items and their measured Ratio.
Biological target: Caspase-1 (Mus musculus)
Sequence (whole entry): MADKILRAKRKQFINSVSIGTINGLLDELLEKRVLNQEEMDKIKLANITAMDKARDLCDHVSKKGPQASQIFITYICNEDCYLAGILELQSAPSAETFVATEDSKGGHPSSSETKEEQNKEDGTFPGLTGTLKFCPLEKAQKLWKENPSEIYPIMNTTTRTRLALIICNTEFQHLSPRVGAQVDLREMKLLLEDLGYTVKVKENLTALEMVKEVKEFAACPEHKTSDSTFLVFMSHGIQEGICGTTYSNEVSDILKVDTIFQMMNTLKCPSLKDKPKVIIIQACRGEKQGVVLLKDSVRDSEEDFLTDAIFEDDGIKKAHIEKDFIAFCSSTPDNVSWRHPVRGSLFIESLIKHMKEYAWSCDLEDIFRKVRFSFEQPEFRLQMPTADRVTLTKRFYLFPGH
Assay: Inhibition of mouse recombinant ICE assessed as ratio of irreversible rate constant K3 to dissociation constant of the reversible binding step Ki pre-incubated for 60 mins with Acetyl-Tyr-Val-Ala-Asp-amino-4-methylcoumarin substrate followed by enzyme addition by fluorescence based assay
# value in M⁻¹ s⁻¹; strip the unit string

* CC(C)[C@H](NC(=O)C(=O)NC1CCCc2ccccc21)C(=O)N[C@@H](CC(=O)O)C(=O)COc1c(F)c(F)cc(F)c1F (some centres not stated) | 2.32e+06
* CC(C)[C@H](NC(=O)C(=O)Nc1cccc2ccccc12)C(=O)NC(CC(=O)O)C(=O)CF (mixture of isomers) | 2.17e+06
* C[C@H](NC(=O)C(=O)Nc1ccccc1C(C)(C)C)C(=O)N[C@@H](CC(=O)O)C(=O)COc1ccccc1F | 442000
* CC(C)[C@H](NC(=O)C(=O)Nc1ccccn1)C(=O)N[C@@H](CC(=O)O)C(=O)COc1c(F)c(F)cc(F)c1F | 36000
* CC(C)[C@H](NC(=O)C(=O)NCc1ccccc1)C(=O)N[C@@H](CC(=O)O)C(=O)COc1c(F)c(F)cc(F)c1F | 1.8e+06

# context switch: different molecule, same Ratio
[ask] // map "C[C@H](NC(=O)C(=O)Nc1cccc2c1CCCC2)C(=O)N[C@@H](CC(=O)O)C(=O)COc1c(F)c(F)cc(F)c1F" to recorded Ratio (system: Caspase-1 (Mus musculus))
[reply] 22000

---

Target: Caspase-1 (Mus musculus)
Assay: Inhibition of mouse recombinant ICE assessed as ratio of irreversible rate constant K3 to dissociation constant of the reversible binding step Ki pre-incubated for 60 mins with Acetyl-Tyr-Val-Ala-Asp-amino-4-methylcoumarin substrate followed by enzyme addition by fluorescence based assay
Where a SMILES comes first, the peptide text is derived from it. The star is where a group is joined. Cbz = O=C(OCc1ccccc1)*; CH2F = FC*
Recorded Metric: Ratio (M⁻¹ s⁻¹)
# value in M⁻¹ s⁻¹; strip the unit string

• CC(C)[C@H](NC(=O)C(=O)Nc1cccc2ccccc12)C(=O)N[C@@H](CC(=O)O)C(=O)COC(=O)c1c(Cl)cccc1Cl = 1.05e+06
• CC(C)[C@H](NC(=O)OCc1ccccc1)C(=O)N[C@@H](C)C(=O)N[C@@H](CC(=O)O)C(=O)CF (Cbz-Val-Ala-Asp-CH2F) = 214000
• C[C@H](NC(=O)C(=O)Nc1cc(C(C)(C)C)ccc1C(C)(C)C)C(=O)N[C@@H](CC(=O)O)C(=O)COc1c(F)c(F)cc(F)c1F = 195000
• C[C@H](NC(=O)C(=O)NCc1ccccc1)C(=O)N[C@@H](CC(=O)O)C(=O)COC(=O)c1c(Cl)cccc1Cl = 59100
• C[C@H](NC(=O)C(=O)NCc1cccc2ccccc12)C(=O)N[C@@H](CC(=O)O)C(=O)COP(=O)(c1ccccc1)c1ccccc1 = 191000
• C[C@H](NC(=O)C(=O)Nc1cc(C(F)(F)F)ccc1N1CCCC1)C(=O)N[C@@H](CC(=O)O)C(=O)COP(=O)(c1ccccc1)c1ccccc1 = 1.5e+06

[ask] Tell me the measured Ratio of "CC(C)[C@H](NC(=O)C(=O)Nc1cccc2ccccc12)C(=O)N[C@@H](CC(=O)O)C(=O)COc1c(-c2ccccc2)oc2ccccc2c1=O" , please.
[reply] 82100

[ask] Tell me the measured Ratio of "CC(C)[C@H](NC(=O)C(=O)Nc1ccccc1C(C)(C)C)C(=O)N[C@@H](CC(=O)O)C(=O)COc1c(F)c(F)cc(F)c1F" , please.
[reply] 2.05e+06

[ask] Tell me the measured Ratio of "C[C@H](NC(=O)C(=O)Nc1ccccc1Cc1ccccc1)C(=O)N[C@@H](CC(=O)O)C(=O)COc1c(F)c(F)cc(F)c1F" , please.
[reply] 323000

[ask] Tell me the measured Ratio of "C[C@H](NC(=O)C(=O)Nc1cc(C(C)(C)C)ccc1C(C)(C)C)C(=O)N[C@@H](CC(=O)O)C(=O)COC(=O)c1c(Cl)cccc1Cl" , please.
[reply] 289000

[ask] Tell me the measured Ratio of "CC(C)[C@H](NC(=O)C(=O)Nc1ccccc1)C(=O)N[C@@H](CC(=O)O)C(=O)COc1c(F)c(F)cc(F)c1F" , please.
[reply] 1.49e+06

[ask] Tell me the measured Ratio of "CC(C)[C@H](NC(=O)C(=O)Nc1cccc2ccccc12)C(=O)N[C@@H](CC(=O)O)C(=O)COc1c(F)cc(F)cc1F" , please.
[reply] 879000
